target: T1, rat collagen II (rat, UniProt P05539 114-1173); assay: ELISA, plate coated with 10 µg/ml rat collagen II, 100 µL Fab lysate, anti-kappa-HRP, chemiluminescence
T1 construct: Bought collagen preparation
T1 sequence (P05539 114-1173 limits assumed): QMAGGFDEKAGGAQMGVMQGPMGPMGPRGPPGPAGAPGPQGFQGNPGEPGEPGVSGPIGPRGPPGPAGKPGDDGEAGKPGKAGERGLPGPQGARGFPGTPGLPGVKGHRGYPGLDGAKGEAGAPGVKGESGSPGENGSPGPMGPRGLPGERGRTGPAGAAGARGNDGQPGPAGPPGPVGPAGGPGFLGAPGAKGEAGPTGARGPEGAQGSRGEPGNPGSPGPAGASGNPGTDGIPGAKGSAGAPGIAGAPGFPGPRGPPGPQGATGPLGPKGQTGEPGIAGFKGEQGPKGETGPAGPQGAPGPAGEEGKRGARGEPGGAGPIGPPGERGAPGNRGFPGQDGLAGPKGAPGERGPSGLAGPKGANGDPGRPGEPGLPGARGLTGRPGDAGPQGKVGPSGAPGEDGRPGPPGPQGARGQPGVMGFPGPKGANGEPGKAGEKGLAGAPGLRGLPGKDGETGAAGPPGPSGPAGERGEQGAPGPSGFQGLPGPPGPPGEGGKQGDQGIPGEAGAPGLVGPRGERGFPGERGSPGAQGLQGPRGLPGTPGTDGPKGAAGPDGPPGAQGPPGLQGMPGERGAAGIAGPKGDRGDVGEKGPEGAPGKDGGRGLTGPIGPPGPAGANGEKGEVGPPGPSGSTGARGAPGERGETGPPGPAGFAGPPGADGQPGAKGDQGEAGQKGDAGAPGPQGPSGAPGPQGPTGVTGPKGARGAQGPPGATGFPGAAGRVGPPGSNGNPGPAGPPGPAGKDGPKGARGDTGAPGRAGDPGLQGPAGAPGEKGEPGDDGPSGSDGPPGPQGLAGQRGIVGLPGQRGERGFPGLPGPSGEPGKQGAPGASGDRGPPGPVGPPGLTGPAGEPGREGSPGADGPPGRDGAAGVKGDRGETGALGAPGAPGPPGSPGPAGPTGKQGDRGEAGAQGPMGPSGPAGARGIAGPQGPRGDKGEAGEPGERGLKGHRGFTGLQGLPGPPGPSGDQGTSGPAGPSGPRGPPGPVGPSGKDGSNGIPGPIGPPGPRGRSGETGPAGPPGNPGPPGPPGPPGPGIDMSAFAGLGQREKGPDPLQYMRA
MEASUREMENT_LABEL: binding result

INSERT INTO measurements (binder, val) VALUES
  ('Fab169-C2 (Fab, V domains shown, Human Fab from a pIX phage library, made in E. coli; kappa light chain (germline L6 scaffold); also called VH169-C2/VLL6) VH: QVQLVQSGAEVKKPGSSVKVSCKASGGTFSSYAISWVRQAPGQGLEWMGGIIPIFGTANYAQKFQGRVTITADESTSTAYMELSSLRSEDTAVYYCARHWRLNYWGQGTLVTVSS VL: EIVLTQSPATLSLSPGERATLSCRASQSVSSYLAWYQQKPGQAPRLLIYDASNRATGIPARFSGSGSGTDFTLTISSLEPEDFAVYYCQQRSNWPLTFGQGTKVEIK', 'binds'),
  ('Fab169-64 (Fab, V domains shown, Human Fab from a pIX phage library, made in E. coli; kappa light chain; also called VH169-64/VL169-64) VH: QVQLVQSGAEVKKPGSSVKVSCKASGGTFSSYAISWVRQAPGQGLEWMGGIIPIFGTANYAQKFQGRVTITADESTSTAYMELSSLRSEDTAVYYCARNIVGDYLLDYWGQGTLVTVSS VL: EIVLTQSPATLSLSPGERATLSCRASQSVDDWLAWYQQKPGQAPRLLIYDASNRATGIPARFSGSGSGTDFTLTISSLEPEDFAVYYCQQGDTAPITFGQGTKVEIK', 'binds'),
  ('Fab169-47 (Fab, V domains shown, Human Fab from a pIX phage library, made in E. coli; kappa light chain; also called VH169-47/VL169-47) VH: QVQLVQSGAEVKKPGSSVKVSCKASGGTFSSYAISWVRQAPGQGLEWMGGIIPIFGTANYAQKFQGRVTITADESTSTAYMELSSLRSEDTAVYYCARTSPSFDYWGQGTLVTVSS VL: EIVLTQSPATLSLSPGERATLSCRASQSVRDFLAWYQQKPGQAPRLLIYYASNRATGIPARFSGSGSGTDFTLTISSLEPEDFAVYYCQQGFHWPFTFGQGTKVEIK', 'binds');

Recorded values, source patent US20140220634A1.
